Quick reference for IC50 among some compounds
# measurement_target: central benzodiazepine receptors
# protocol_details: inhibition of specific binding of [3H] flunitrazepam to central benzodiazepine receptors, rat brain
# run_parameters: 4° C., pH 7.4

Solved entries:
compound	IC50
CCCN(CCC)C(=O)CNc1c(C(=O)c2ccncc2)cnc2cc(Cl)ccc12 [compound 26439]	> 10 µM
CN(C(=O)CNc1c(C(=O)c2ccccc2)cnc2cc(Cl)ccc12)c1ccc(C(F)(F)F)cc1 [compound 26778]	> 10 µM
CN(C(=O)CNc1c(C(=O)c2ccccc2)cnc2cccnc12)c1ccccc1Cl [compound 26651]	8.49 µM
CN(C(=O)CNc1c(C(=O)c2ccccc2)cnc2nc(Cl)ccc12)c1ccc(Cl)cc1 [compound 26554]	> 10 µM

QUERY: For the compound CCCN(C(=O)CNc1c(C(=O)c2ccccc2)cnc2cc(Cl)ccc12)c1ccc(Cl)cc1 [compound 26397] , what IC50 is on record?
RESULT: > 10 µM

QUERY: Also, CCCCOC(=O)c1cnc2cc(Cl)ccc2c1NC(C)C(=O)N(CCC)CCC (centres unmarked) [compound 26449] please.
RESULT: > 20 µM

QUERY: Also, CCOC(=O)c1cnc2cc(Cl)ccc2c1NC(C)C(=O)N(C)c1ccc(Cl)cc1 (centres unmarked) [compound 26423] please.
RESULT: 12.6 µM

QUERY: Also, CCCN(CCC)C(=O)C(C)Nc1c(C(=O)OCC)cnc2cc(Cl)ccc12 (centres unmarked) [compound 26310] please.
RESULT: > 20 µM
